assay: in vivo; details: rhesus monkey, po, 2 mg/kg
Description: Bioavailability determined against adult Rhesus monkey at 2 mg/kg after peroral administration
Endpoint label: bioavailability (%)
Numbers only, in %.

Exercise: Returns the measured bioavailability for the input compound. Input: C[C@]1(C(=O)O)CCc2ccc(OCCCOc3ccc(OCC(F)(F)F)cc3Cl)cc2O1
Key: 88

---

experiment: in vivo; details: Sprague-Dawley, rat, iv, 0.5 mg/kg
# if measured clearance < 3 mL/min/kg: label 1  # else: label 0

Here's what some known entries look like.
- Mol smiles: "C[C@]1(C(=O)O)CCc2ccc(OCCCOc3ccc(OCC(F)(F)F)cc3Cl)cc2O1"
  Assigned label: "label 0"
- Mol smiles: "CC(C)Cc1ccc(OCCCOc2ccc3c(c2)O[C@@](C)(C(=O)O)CC3)c(Cl)c1"
  Assigned label: "label 1"
- Mol smiles: "CC(C)c1ccc(OCCCOc2ccc3c(c2)O[C@@](C)(C(=O)O)CC3)c(Cl)c1"
  Assigned label: "label 0"
- Mol smiles: "CC[C@]1(C(=O)O)CCc2ccc(OCCCOc3ccc(C4CCCCC4)cc3Cl)cc2O1"
  Assigned label: "label 0"
- Mol smiles: "C[C@]1(C(=O)O)CCc2ccc(OCCCOc3ccc(C4CCCC4)cc3Cl)cc2O1"
  Assigned label: "label 0"

Exercise: Determine whether this compound shows clearance lower than 3 mL/min/kg (ties excluded): CC[C@]1(C(=O)O)CCc2ccc(OCCCOc3ccc(C4CCOCC4)cc3Cl)cc2O1
Key: label 0

Exercise: Determine whether this compound shows clearance lower than 3 mL/min/kg (ties excluded): CC[C@]1(C(=O)O)CCc2ccc(OCCCOc3ccc(C4CCC5(CC4)CC5)cc3Cl)cc2O1
Key: label 1

Exercise: Determine whether this compound shows clearance lower than 3 mL/min/kg (ties excluded): C[C@]1(C(=O)O)CCc2ccc(OCCCOc3ccc(OCC4CC4)cc3Cl)cc2O1
Key: label 0

Exercise: Determine whether this compound shows clearance lower than 3 mL/min/kg (ties excluded): CC[C@]1(C(=O)O)CCc2ccc(OCCCOc3ccc(C4CCC(C)(C)CC4)cc3Cl)cc2O1
Key: label 1
